Cited source for all entries: paper PMC2869451

ASSAYED TARGET: S-adenosylmethionine synthetase (MAT, cMAT) (Escherichia coli)
Sequence (P0A817 2-384): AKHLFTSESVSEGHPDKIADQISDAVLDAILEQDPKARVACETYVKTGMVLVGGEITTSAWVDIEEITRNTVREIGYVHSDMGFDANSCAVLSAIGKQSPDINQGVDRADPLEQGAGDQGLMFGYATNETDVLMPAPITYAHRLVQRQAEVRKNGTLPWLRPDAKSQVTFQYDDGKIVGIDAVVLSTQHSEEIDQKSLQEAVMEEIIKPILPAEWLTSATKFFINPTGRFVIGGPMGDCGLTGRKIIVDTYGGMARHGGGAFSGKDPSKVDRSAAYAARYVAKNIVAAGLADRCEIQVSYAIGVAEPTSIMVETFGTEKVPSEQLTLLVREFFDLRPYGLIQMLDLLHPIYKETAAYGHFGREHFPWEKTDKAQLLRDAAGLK
RESULT TYPE: Ki

# COMPOUND SMILES, MEAS VALUE
data = [
    ("CCOc1ccccc1NC(=O)NCC(=O)NNC(=O)Nc1cc([N+](=O)[O-])ccc1C", "1.9 nM"),
]
